Provide the reported pIC50 of each item.
biological target: Substance-P receptor (Cavia porcellus, UniProt P30547); assay: Tachykinin receptor 1 antagonistic activity as inhibition of contractions evoked by 4 nM [Sar9,Met(O2)11]-SP in guinea pig ileum; type: functional, tissue-based
Sequence (P30547 whole entry): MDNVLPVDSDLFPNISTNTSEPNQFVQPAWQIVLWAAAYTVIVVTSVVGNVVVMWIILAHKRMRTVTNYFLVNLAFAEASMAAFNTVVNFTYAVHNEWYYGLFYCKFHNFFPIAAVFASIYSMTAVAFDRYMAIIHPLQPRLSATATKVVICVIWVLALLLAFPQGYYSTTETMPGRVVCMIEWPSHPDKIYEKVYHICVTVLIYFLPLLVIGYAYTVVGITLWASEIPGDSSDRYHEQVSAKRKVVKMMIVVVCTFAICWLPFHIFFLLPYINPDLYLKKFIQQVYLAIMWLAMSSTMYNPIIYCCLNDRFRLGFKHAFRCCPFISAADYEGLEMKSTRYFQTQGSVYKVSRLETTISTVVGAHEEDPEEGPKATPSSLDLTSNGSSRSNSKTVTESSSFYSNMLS
Numbers only, as −log10 of the molar value.

COMPOUND STRUCTURE	pIC50
CNC(=O)c1ccccc1NC(=O)N1CCC[C@H]1C(=O)N[C@@H](Cc1ccc2ccccc2c1)C(=O)N(C)Cc1ccccc1	8.52

Quick one: give me pIC50 for each item below, same order please.
1. CN(Cc1ccccc1)C(=O)[C@H](Cc1ccc2ccccc2c1)NC(=O)[C@@H]1CCCN1C(=O)Nc1cccc(F)c1
2. CN(Cc1ccccc1)C(=O)[C@H](Cc1ccc2ccccc2c1)NC(=O)[C@@H]1CCCN1C(=O)Nc1ccccc1C(N)=O

1. 8.17
2. 8.72
